Give measured Efficacy % for each item. Keep answers brief.
# Measured target: Estrogen Receptor ERα (Homo sapiens, UniProt P03372)
# Sequence (P03372 311-547 limits assumed): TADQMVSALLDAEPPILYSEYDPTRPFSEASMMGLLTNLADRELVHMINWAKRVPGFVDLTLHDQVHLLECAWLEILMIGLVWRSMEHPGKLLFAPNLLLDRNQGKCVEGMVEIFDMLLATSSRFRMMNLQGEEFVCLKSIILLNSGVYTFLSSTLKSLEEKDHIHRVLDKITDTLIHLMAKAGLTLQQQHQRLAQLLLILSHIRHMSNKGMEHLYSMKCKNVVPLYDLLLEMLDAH
# Protocol summary: cell-based
# Details: This Study

What Efficacy % value was documented for this molecule, O=C(OCc1ccccc1)c1ccc(O)cc1 [BzPB, Benzyl 4-hydroxybenzoate] ? 53.46%

Which Efficacy % reading was recorded for the molecule Oc1ccc(Cc2ccc(O)cc2)cc1 [BPF, Bis(4-hydroxyphenyl)methane] ? 60.05%

Query (molecule): CC(C)Oc1ccc(S(=O)(=O)c2ccc(O)cc2)cc1 [D8, 4-((4-Isopropoxyphenyl)sulfonyl)phenol] ; field requested: Efficacy % 18.50%

Need Efficacy % of CC(C)(c1ccc(O)cc1)c1ccc(O)cc1 [BPA, 4,4'-(Propane-2,2-diyl)diphenol, reference compound] , thanks. 37.53%

Report Efficacy % for CCC(C)(c1ccc(O)cc1)c1ccc(O)cc1 [BPB, 4,4'-(Butane-2,2-diyl)diphenol] please. 23.67%

I would be grateful if you could share the reported Efficacy % for CC1(C)C(O)C(C)(C)C1O (racemic) [r-TMCD] . <20%

Record request: Efficacy % value, item CC1(C)[C@H](O)C(C)(C)[C@H]1O [t-TMCD] <20%

Which Efficacy % value belongs to O=S(=O)(c1ccc(O)cc1)c1ccc(O)cc1 [BPS, 4,4'-Sulfonyldiphenol] ? 65.69%

Give its Efficacy % value. Item: O=S(=O)(c1ccc(O)cc1)c1ccccc1O [24BPS] 19.00%

// query Efficacy % value for entry COC(=O)C(c1ccc(O)cc1)c1ccc(O)cc1 [Bz, Methyl bis(4-hydroxyphenyl)acetate] 32.40%

Could you share which Efficacy % value was measured for CC(C)c1cc(C(C)(C)c2ccc(O)c(C(C)C)c2)ccc1O [BPG] ? 19.01%

---

# System: HEK293H (PPARγ)
# Details: against baseline cytotoxicity
Kindly supply the reported Toxic ratio (TR) TRPPARγ values for the records listed here.
Keep it simple and answer with nothing but the number.

Param item = O=S(=O)(c1ccc(O)cc1)c1ccc(OCc2ccccc2)cc1 [BPS-MPE, 4-[4-(benzyloxy)benzenesulfonyl]phenol] ; retrieve measured Toxic ratio (TR) TRPPARγ. 0.09

Look at this compound and give its reported Toxic ratio (TR) TRPPARγ. O=C(OCc1ccccc1)c1ccc(O)cc1 [BzPB, Benzyl 4-hydroxybenzoate] 0.35

// query Toxic ratio (TR) TRPPARγ value for entry CC(C)Oc1ccc(S(=O)(=O)c2ccc(O)cc2)cc1 [D8, 4-((4-Isopropoxyphenyl)sulfonyl)phenol] 0.93

Looking for the measured Toxic ratio (TR) TRPPARγ of COC(=O)C(c1ccc(O)cc1)c1ccc(O)cc1 [Bz, Methyl bis(4-hydroxyphenyl)acetate] , can you help? 0.92

---

# Tested on: SH-SY5Y cells
# Details: cytotoxicity, NOI assay cells
Would you kindly list IC10, SH-S5Y5, NOI for each of these compounds?
Your answer is read as µM, so omit the unit and give the number.

Returns the measured IC10, SH-S5Y5, NOI for the input compound. Input: Oc1ccc(Cc2ccc(O)cc2)cc1 [BPF, Bis(4-hydroxyphenyl)methane] 569

What measured IC10, SH-S5Y5, NOI goes with "CC(c1ccccc1)(c1ccc(O)cc1)c1ccc(O)cc1" ? 106

Please give the measured IC10, SH-S5Y5, NOI for this compound: "CCC(C)(c1ccc(O)cc1)c1ccc(O)cc1" 167

Recorded IC10, SH-S5Y5, NOI for "O=S(=O)(c1ccc(O)cc1)c1ccc(O)cc1" , please? 195

Sample "Oc1ccc(Sc2ccc(O)cc2)cc1" — what was its IC10, SH-S5Y5, NOI? 140

Quick one: IC10, SH-S5Y5, NOI of Cc1cc(Cc2cc(C)c(O)c(C)c2)cc(C)c1O [TMBPF, Bis(3,5-dimethyl-4-hydroxyphenyl)methane] ? 12.7

Endpoint output: IC10, SH-S5Y5, NOI of C=CCOc1ccc(S(=O)(=O)c2ccc(O)cc2)cc1 [BPS-MAE, 4-[[4-(Allyloxy)phenyl]sulfonyl]phenol] . Value? 136

Find the recorded IC10, SH-S5Y5, NOI belonging to "Oc1ccc(C(c2ccc(O)cc2)(C(F)(F)F)C(F)(F)F)cc1" and report it. 66.4

Sample Oc1ccc(C2(c3ccc(O)cc3)CCCCC2)cc1 [BPZ, 1,1'-Bis(4-hydroxyphenyl)cyclohexane] — what was its IC10, SH-S5Y5, NOI? 78.9

What value of measured IC10, SH-S5Y5, NOI is listed for "Cc1ccc(S(=O)(=O)NC(=O)Nc2cccc(OS(=O)(=O)c3ccc(C)cc3)c2)cc1" ? 49.4

Dear colleague, I am looking for the recorded IC10, SH-S5Y5, NOI of the following compound: CC(C)(c1ccc(OCC2CO2)cc1)c1ccc(OCC2CO2)cc1 (centres unmarked) 57.3

Consider the compound shown here: COC(=O)C(c1ccc(O)cc1)c1ccc(O)cc1 [Bz, Methyl bis(4-hydroxyphenyl)acetate] What is its recorded IC10, SH-S5Y5, NOI? 373

Fill blank: measured IC10, SH-S5Y5, NOI of the compound "CC(c1ccc(O)cc1)c1ccc(O)cc1" is ____. 279

// lookup IC10, SH-S5Y5, NOI for CC(C)(c1ccc(O)c(-c2ccccc2)c1)c1ccc(O)c(-c2ccccc2)c1 [BPPH, 2,2-Bis(2-hydroxy-5-biphenylyl)propane] 23.1

Would you mind telling me what IC10, SH-S5Y5, NOI value was observed for CC(C)(c1ccc(O)cc1)c1ccc(O)cc1 [BPA, 4,4'-(Propane-2,2-diyl)diphenol, reference compound] ? 237

What does the record list as IC10, SH-S5Y5, NOI for "CC(C)c1cc(C(C)(C)c2ccc(O)c(C(C)C)c2)ccc1O" ? 36.1

Fill in the blank: the reported IC10, SH-S5Y5, NOI of O=C(OCc1ccccc1)c1ccc(O)cc1 [BzPB, Benzyl 4-hydroxybenzoate] is ____. 389

---

So I've got a bunch of compounds here, and I need their cytotoxicity,median REPBPA,IC10 values.
# Test system: HEK293H, HEK293T, H4IIe, MCF7 and SH-SY5Y cells
# Details: median IC10 relative to BPA
// return just the number, without any unit appended

Form field: reported cytotoxicity,median REPBPA,IC10 of CC(C)(c1ccc(O)c(-c2ccccc2)c1)c1ccc(O)c(-c2ccccc2)c1 [BPPH, 2,2-Bis(2-hydroxy-5-biphenylyl)propane] 8.72

Need cytotoxicity,median REPBPA,IC10 of CC1(C)C(O)C(C)(C)C1O (racemic) , thanks. 0.00844

cytotoxicity,median REPBPA,IC10 lookup needed for O=S(=O)(c1ccc(O)cc1)c1ccc(OCc2ccccc2)cc1 [BPS-MPE, 4-[4-(benzyloxy)benzenesulfonyl]phenol] , thanks. 0.62

Which value of cytotoxicity,median REPBPA,IC10 has been reported for Cc1cc(Cc2cc(C)c(O)c(C)c2)cc(C)c1O [TMBPF, Bis(3,5-dimethyl-4-hydroxyphenyl)methane] in the records? 5.51

---

Can you tell me SRbaseline for the items I'm about to list?
# Tested on: Tox21 assays
# Protocol summary: Re-evaluated Tox21 data (Adamovsky et al.), REPBPA and SRbaseline;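 note: published Tox21 results reanalysed with a revised model predicting baseline toxicity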
# Details: ATG_PPARg_TRANS_up; Specificity Ratio

Look up SRbaseline for this molecule: "Cc1cc(C(C)(C)c2ccc(O)c(C)c2)ccc1O" 17.78

Name the recorded SRbaseline for "O=S(=O)(c1ccc(O)cc1)c1ccc(O)cc1" . 2973

What value of SRbaseline has been recorded for this entry: "CC(C)(c1cc(Cl)c(O)c(Cl)c1)c1cc(Cl)c(O)c(Cl)c1" 37.70

I have this molecule here, Oc1ccc(Cc2ccc(O)cc2)cc1 [BPF, Bis(4-hydroxyphenyl)methane] , and I need its recorded SRbaseline. 41.61

---

So I've got a bunch of compounds here, and I need their Toxic ratio (TR) TRPPARγ values.
# Test system: HEK293H (PPARγ)
# Details: against baseline cytotoxicity

# query: Toxic ratio (TR) TRPPARγ | item "CCC(C)(c1ccc(O)cc1)c1ccc(O)cc1" | system: HEK293H (PPARγ) 0.61

// lookup Toxic ratio (TR) TRPPARγ | system=HEK293H (PPARγ) | key= CC(C)(c1ccc(O)c(-c2ccccc2)c1)c1ccc(O)c(-c2ccccc2)c1 [BPPH, 2,2-Bis(2-hydroxy-5-biphenylyl)propane] 0.15

Short answer please: Toxic ratio (TR) TRPPARγ, HEK293H (PPARγ), entry Cc1cc(Cc2cc(C)c(O)c(C)c2)cc(C)c1O [TMBPF, Bis(3,5-dimethyl-4-hydroxyphenyl)methane] 1.52

For the record CC(C)(c1ccc(OCC2CO2)cc1)c1ccc(OCC2CO2)cc1 (stereo not shown) , what value of Toxic ratio (TR) TRPPARγ is listed for HEK293H (PPARγ)? 0.42

API: value(readout= Toxic ratio (TR) TRPPARγ, system= HEK293H (PPARγ), query= "CC(C)c1cc(C(C)(C)c2ccc(O)c(C(C)C)c2)ccc1O" ) 0.22

# query: Toxic ratio (TR) TRPPARγ | item "Cc1ccc(S(=O)(=O)NC(=O)Nc2ccc(Cc3ccc(NC(=O)NS(=O)(=O)c4ccc(C)cc4)cc3)cc2)cc1" | system: HEK293H (PPARγ) 0.91

Report Toxic ratio (TR) TRPPARγ for "Cc1ccc(S(=O)(=O)NC(=O)Nc2cccc(OS(=O)(=O)c3ccc(C)cc3)c2)cc1" tested on HEK293H (PPARγ). 2.74
